- Experiment summary: Ex vivo biodistribution in wild-type mice
- Run parameters: mouse, blood, total radioactivity, 75 min p.i., ex vivo gamma counting, tracer alone, mean ± SD, n: PentixaFor 3, 18F 5, 68Ga 4, 177Lu 3, read-out: blood uptake
Non-standard residues stand in square brackets, D forms with d. Residues, ends and D or L forms follow the SMILES beside them. Groups on a side chain read outwards from the residue. *: point of attachment. DOTA = O=C(O)CN1CCN(CC(=O)O)CCN(CC(=O)*)CCN(CC(=O)O)CC1; 2Nal = N[C@@H](Cc1ccc2ccccc2c1)C(=O)O; dNMeOrn = CN[C@H](CCCN)C(=O)O; 4Amb = NCc1ccc(C(=O)O)cc1
Measured property: SUV at 1.25 h
Reply with the number, then its unit.

Query :: Report SUV at 1.25 h for CN1C(=O)[C@@H](Cc2ccc(O)cc2)NC(=O)CNC(=O)[C@H](Cc2ccc3ccccc3c2)NC(=O)[C@H](CCCNC(=N)N)NC(=O)[C@H]1CCCNC(=O)c1ccc(CNC(=O)CN2CCN(CC(=O)O)CCN(CC(=O)O)CCN(CC(=O)O)CC2)cc1 [[^68Ga]PentixaFor, metal not drawn] (cyclo([dY][dNMeOrn]([4Amb-DOTA])R[2Nal]G)) please.
Result :: 0.6 SUV
